# System: Vitamin D3 receptor (Homo sapiens), P11473 [R274L]
# Sequence (P11473 whole entry R274L): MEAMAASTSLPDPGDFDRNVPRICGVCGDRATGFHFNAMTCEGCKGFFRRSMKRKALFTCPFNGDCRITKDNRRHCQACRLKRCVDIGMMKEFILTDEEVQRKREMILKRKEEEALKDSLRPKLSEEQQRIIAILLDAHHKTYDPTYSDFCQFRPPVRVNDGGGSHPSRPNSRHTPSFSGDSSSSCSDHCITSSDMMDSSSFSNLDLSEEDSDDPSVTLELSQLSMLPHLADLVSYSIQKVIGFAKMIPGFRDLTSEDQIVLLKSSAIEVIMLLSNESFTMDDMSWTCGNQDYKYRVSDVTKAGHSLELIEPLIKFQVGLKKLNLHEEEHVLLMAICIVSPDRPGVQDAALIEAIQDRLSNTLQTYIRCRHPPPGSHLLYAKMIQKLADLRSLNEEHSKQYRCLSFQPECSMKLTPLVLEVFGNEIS
# experiment notes: Agonist activity at human full length VDR R274L mutant expressed in COS7 cells after 24 rs by luciferase reporter gene assay
# Assay type: cell-based
# measurement context: COS-7
Calls of active or inactive are those of the source. The calls are words filed in the database; no cut-off is given here.
// classify into yes (active), no (inactive)

Solved cases (3 shown):
# sample smiles, class
records = [
    ("C[C@H](CCCC(C)(C)O)[C@H]1CC[C@H]2/C(=C/C=C3/C[C@@H](O)C[C@H](OCCCCO)C3)CCC[C@]12C", "yes"),
    ("C[C@H](CCCC(C)(C)O)[C@H]1CC[C@H]2/C(=C/C=C3/C[C@@H](O)[C@@](C)(O)[C@H](OCCCO)C3)CCC[C@]12C", "no"),
    ("C[C@H](CCCC(C)(C)O)[C@H]1CC[C@H]2/C(=C/C=C3/C[C@@H](O)[C@@](C)(O)[C@H](OCCCCO)C3)CCC[C@]12C", "no"),
]

Recorded call for `C[C@H](CCCC(C)(C)O)[C@H]1CC[C@H]2/C(=C/C=C3/C[C@@H](O)[C@@](C)(O)[C@H](OCCO)C3)CCC[C@]12C` ?
no

Recorded call for `C[C@H](CCCC(C)(C)O)[C@H]1CC[C@H]2/C(=C/C=C3/C[C@@H](O)C[C@H](OCCO)C3)CCC[C@]12C` ?
yes

The values you see were collected from ChEMBL document CHEMBL2424653.
